Sourced from patent US20190388421A1

# reported pEC50; entries follow
# target.system: human GPCR sphingosine 1-phosphate receptor 5 (S1PR5) (Homo sapiens)
# Sequence (Q9H228 whole entry): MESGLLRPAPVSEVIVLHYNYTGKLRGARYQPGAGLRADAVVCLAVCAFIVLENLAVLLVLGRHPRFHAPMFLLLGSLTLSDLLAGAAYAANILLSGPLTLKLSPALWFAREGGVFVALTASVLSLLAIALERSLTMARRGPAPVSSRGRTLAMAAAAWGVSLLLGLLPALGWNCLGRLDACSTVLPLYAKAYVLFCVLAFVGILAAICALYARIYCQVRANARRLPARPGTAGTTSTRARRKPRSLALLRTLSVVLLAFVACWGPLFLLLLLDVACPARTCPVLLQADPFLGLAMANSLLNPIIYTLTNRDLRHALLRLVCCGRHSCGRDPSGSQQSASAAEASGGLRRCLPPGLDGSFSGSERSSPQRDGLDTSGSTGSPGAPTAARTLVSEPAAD
# measurement.notes: S1PR5 selectivity assay (Ca2+ flux, antagonist, S1PR5 specific agonist trigger)
# test.parameters: S1P5 antagonist EC50, CHO cells overexpressing human S1PR5 and Gq protein
pEC50: −log10 of the molar value.

// known answers, use as guide
{"structure.smiles.string": "CCOc1cc(NC(=O)NCc2cc(C)c(-c3cn(C)nc3C(F)(F)F)nn2)cc(C2CC2)n1", "pEC50": "≤ 4.70"}
{"structure.smiles.string": "Cc1cn(-c2nnc(CNC(=O)Nc3cc(Cl)nc(OCC(F)F)c3)cc2C)c(C)n1", "pEC50": "≤ 4.70"}
{"structure.smiles.string": "COCCOc1cc(NC(=O)NCc2cc(C)c(-c3cn(C)nc3C(F)(F)F)nn2)cc(Cl)n1", "pEC50": "≤ 4.70"}

INPUT: # return recorded pEC50 for input Cc1cc(CNC(=O)Nc2cc(OCCO)nc(C(F)(F)F)c2)nnc1-c1cn(C)nc1C(F)(F)F
OUTPUT: ≤ 4.70
